# Target Or System: human glucagon receptor (human) (UniProt P47871)
# Assay Method Text: cell-based or functional assay
*1 amine or outer side, *2 acyl side, *3 side chain or, on linkers, in order; H or OH if unused. Where no end group is shown, it is not given here. Side-chain parts run from the residue outwards. [ ]: non-standard residue; d: D form. The star is where a group is joined. Decanoyl(10-(4-HOOC-PhO)) = O=C(O)c1ccc(OCCCCCCCCCC(=O)*)cc1; αMePhe(2-F) = C[C@](N)(Cc1ccccc1F)C(=O)O; γGlu = O=C(O)[C@H](CCC(=O)[*:2])N[*:1]; αMeY = C[C@](N)(Cc1ccc(O)cc1)C(=O)O; αMeL = CC(C)C[C@](C)(N)C(=O)O; Orn = NCCC[C@H](N)C(=O)O; AEEA = NCCOCCOCC(=O)O; Aib = CC(C)(N)C(=O)O
cAMP EC50 values by entry
Parameter Measured: cAMP EC50

Binder: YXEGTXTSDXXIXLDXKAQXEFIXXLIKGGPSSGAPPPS (Y-Aib-EGT-αMeF(2F)-TSD-4Pal-Aib-I-αMeL-LD-Orn-K((2-[2-(2-Amino-ethoxy)-ethoxy]-acetyl)2-(γ-Glu)-CO-(CH2)10-CH3)AQ-Aib-EFI-(D-Glu)-αMeY-LIK((2-[2-(2-Amino-ethoxy)-ethoxy]-acetyl)2-(γ-Glu)-CO-(CH2)10-CH3)GGPSSGAPPPS-NH2) [Example 334]
Result: > 9.95 µM
//
Binder: YXEGTXTSDXXIXLDXQAQXKFIXXLIEGGPSSGAPPPSK (Y-Aib-EGT-αMeF(2F)-TSD-4Pal-Aib-I-αMeL-LD-Orn-QAQ-Aib-K((2-[2-(2-Amino-ethoxy)-ethoxy]-acetyl)2-(γ-Glu)-CO-(CH2)12-CO2H)FI-(D-Glu)-αMeY-LIEGGPSSGAPPPSK((2-[2-(2-Amino-ethoxy)-ethoxy]-acetyl)2-(γ-Glu)-CO-(CH2)12-CO2H)-NH2) [Example 489]
Result: > 10.1 µM
//
Binder: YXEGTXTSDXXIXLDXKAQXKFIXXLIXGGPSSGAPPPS (Y-Aib-EGT-αMeF(2F)-TSD-4Pal-Aib-I-αMeL-LD-Orn-K((2-[2-(2-Amino-ethoxy)-ethoxy]-acetyl)2-(γ-Glu)-CO-(CH2)12-CO2H)AQ-Aib-K((2-[2-(2-Amino-ethoxy)-ethoxy]-acetyl)2-(γ-Glu)-CO-(CH2)12-CO2H)FI-(D-Glu)-αMeY-LI-Orn-GGPSSGAPPPS-NH2) [Example 406]
Result: > 9.95 µM
//
Binder: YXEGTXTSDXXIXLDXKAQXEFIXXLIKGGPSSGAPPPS (Y-Aib-EGT-αMeF(2F)-TSD-4Pal-Aib-I-αMeL-LD-Orn-K((2-[2-(2-Amino-ethoxy)-ethoxy]-acetyl)-(γ-Glu)-CO-(CH2)10-CH3)AQ-Aib-EFI-(D-Glu)-αMeY-LIK((2-[2-(2-Amino-ethoxy)-ethoxy]-acetyl)-(γ-Glu)-CO-(CH2)10-CH3)GGPSSGAPPPS-NH2) [Example 427]
Result: > 9.95 µM
//
Binder: Y[Aib]EGT[αMePhe(2-F)]TSDV[Aib]I[αMeL]LD[Orn]K([AEEA-AEEA-γGlu-Decanoyl(10-(4-HOOC-PhO))])AQ[Aib]K([AEEA-AEEA-γGlu-Decanoyl(10-(4-HOOC-PhO))])FI[dE][αMeY]LI[Orn]GGPSSGAPPPS-NH2 [Example 410]
Result: > 9.95 µM
